Hey, just so you know, these numbers are from patent US20230183291A1.

# reported pKd; entries follow
Molecular target: T1, Biotinylated Human ACE2, His, Avitag protein (ACROBiosystems, AC2-H82E6) (human, UniProt Q9BYF1 18-740)
T1 construct: also called biotinylated ACE2; ACE2 protein; not shown: His tag and Avitag
T1 sequence (Q9BYF1 18-740 limits assumed): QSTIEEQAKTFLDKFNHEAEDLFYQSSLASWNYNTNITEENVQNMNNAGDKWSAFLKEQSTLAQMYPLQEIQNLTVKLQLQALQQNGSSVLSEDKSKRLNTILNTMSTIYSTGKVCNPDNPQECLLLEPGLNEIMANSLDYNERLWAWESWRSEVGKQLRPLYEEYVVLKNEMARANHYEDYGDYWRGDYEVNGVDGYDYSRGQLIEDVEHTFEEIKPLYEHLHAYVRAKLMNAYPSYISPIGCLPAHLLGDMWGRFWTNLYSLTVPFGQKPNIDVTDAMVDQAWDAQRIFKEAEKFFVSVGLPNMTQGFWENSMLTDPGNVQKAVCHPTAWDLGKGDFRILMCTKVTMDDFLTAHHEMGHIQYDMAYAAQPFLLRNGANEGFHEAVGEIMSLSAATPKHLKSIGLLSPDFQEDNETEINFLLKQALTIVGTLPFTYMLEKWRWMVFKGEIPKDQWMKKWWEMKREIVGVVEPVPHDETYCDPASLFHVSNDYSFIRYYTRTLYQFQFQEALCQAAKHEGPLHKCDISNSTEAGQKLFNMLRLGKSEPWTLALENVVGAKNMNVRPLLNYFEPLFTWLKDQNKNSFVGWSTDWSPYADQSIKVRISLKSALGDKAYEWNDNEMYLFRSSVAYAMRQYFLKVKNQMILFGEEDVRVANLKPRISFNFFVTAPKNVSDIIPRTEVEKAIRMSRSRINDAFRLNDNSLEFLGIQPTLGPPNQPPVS
Assay: SPR multiple cycle kinetics, ACE2 captured on CAP chip, peptide analyte 6.25-100 nM; geometric mean
Numbered stars: 1 amine (or outer) side, 2 acyl side, 3 side chain; on linkers, the order of the positions; unused ones are H or OH. Bridge positions count the residues as written; N and C are the ends. Square brackets hold non-standard residues; d marks the D form. Ends that are not written are not given here. TATA = O=C(CC[*:1])N1CN(C(=O)CC[*:2])CN(C(=O)CC[*:3])C1; hArg = N=C(N)NCCCC[C@H](N)C(=O)O; PYA = propargyl-acid
Lab note: report pKd as minus log10 of the concentration in molar units, number only.

Study these solved cases before continuing.
# binder, measurement_type, value_measured
data = [
    ("Ac-CNAVLCSWA[hArg]ANSFC (linker 1-6-15 via TATA, bicyclic peptide, TATA scaffold) [BCY18259]", "pKd", 7.89),
    ("Ac-CNSVLCSWA[hArg]ANSFC (linker 1-6-15 via TATA, bicyclic peptide, TATA scaffold) [BCY18658]", "pKd", 7.87),
]

Proceeding to the next binder to report its pKd.
Look up and state reported pKd for Ac-CNTVLCGWARANSLCK(PYA) (linker 1-6-15 via TATA, bicyclic peptide, TATA scaffold) [BCY18550] 7.81
